System: MIA PaCa-2
Test: Antiproliferative activity against human MIA PaCa-2 cells assessed as reduction in cell viability incubated for 24 hrs by CCK-8 assay
Assay type: functional, cell-based
Conditions: MIA PaCa-2, 24 h
metric: IC50 (µM)
Numbers only, in µM.

Prompt line: Could you share which IC50 value was measured for Nc1n[nH]c(NCc2c(Cl)cccc2Oc2ccc(-c3ccccc3)cc2)n1 ?
Response line: 61.5

====

System: THP-1
Assay: Antiproliferative activity against human THP-1 cells incubated for 24 hrs by trypan blue reagent based analysis
Format: functional, cell-based
Conditions: THP-1, 24 h
metric: pIC50
One number for each entry, as −log10 of the molar value.

Prompt line: Could you share which pIC50 value was measured for O=C(NO)c1ccc(CN2CCC(CN[C@@H]3C[C@H]3c3ccccc3)CC2)cc1 ?
Response line: 4.79
